Tested on: Botrytis cinerea
Assay Method Text: Activity against the grey mold Botrytis cinerea in the microtiterplate test
Assay type: cell-based
Test Settings: Botrytis cinerea, 168 h; single active compound, 1 ppm; read-out: Observed efficacy
Endpoint Label: inhibition of growth at 1 ppm (%)
Please give a number only; it is taken to be in %.

(Q) Assign inhibition of growth at 1 ppm to the following record: "Cc1cc(C2=NC(C)(C)C(F)(F)c3ccccc32)cnc1C(F)F"
(A) 15

(Q) Fill in inhibition of growth at 1 ppm for record "O=C(Nc1ccccc1-c1ccc(Cl)cc1)c1cccnc1Cl"
(A) 63

(Q) For the compound "CC#Cc1cc(C)nc(Nc2ccccc2)n1" , give its reported inhibition of growth at 1 ppm.
(A) 63

(Q) Consider the compound "Cc1cc(C2=NC(C)(C)C(F)(F)c3ccccc32)cnc1C" . State its measured inhibition of growth at 1 ppm.
(A) 13

(Q) Complete the entry with inhibition of growth at 1 ppm for "Cc1ncc(C2=NC(C)(C)C(F)(F)c3ccccc32)cc1CF"
(A) 6

(Q) Look up and state reported inhibition of growth at 1 ppm for "Cc1cc(C)nc(Nc2ccccc2)n1"
(A) 50

(Q) Look up and report measured inhibition of growth at 1 ppm for this entry: C=CCOC(Cn1ccnc1)c1ccc(Cl)cc1Cl (centres unmarked)
(A) 54

(Q) Supply inhibition of growth at 1 ppm value. Item: "COc1cc(C2=NC(C)(C)C(F)(F)c3ccccc32)cnc1C(F)F"
(A) 12

----------
Test system: Pyricularia oryzae
Assay Method Text: microbe, parasite or virus in culture
Format: cell-based
Test Settings: Pyricularia oryzae, 168 h, read-out: Observed efficacy
Endpoint Label: inhibition of growth at 4 ppm (%)
Write down the numeric answer in % and omit the unit.

(Q) Consider the compound "CC#Cc1cc(C)nc(Nc2ccccc2)n1" . State its measured inhibition of growth at 4 ppm.
(A) 64

(Q) Specify measured inhibition of growth at 4 ppm for Cc1nc(C(F)(F)F)c(C(=O)Nc2c(Br)cc(OC(F)(F)F)cc2Br)s1 [Thifluzamid, thifluzamide] .
(A) 16

(Q) // Input: "Cc1cc(C2=NC(C)(C)C(F)(F)c3ccccc32)cnc1C" . Output its inhibition of growth at 4 ppm only.
(A) 53

(Q) Look up and report measured inhibition of growth at 4 ppm for this entry: "C=CCOC1=NS(=O)(=O)c2ccccc21"
(A) 2

(Q) Please supply the value of reported inhibition of growth at 4 ppm for the item COCC(=O)N(c1c(C)cccc1C)C(C)C(=O)OC (stereo not drawn) [Metalaxyl, metalaxyl]
(A) 11

(Q) Could you please provide reported inhibition of growth at 4 ppm for "Cc1ncc(C2=NC(C)(C)C(F)(F)c3ccccc32)cc1CF" ? Thanks!
(A) 52

(Q) Given the compound "COc1cc(C)c(C(=O)c2c(OC)ccc(Br)c2C)c(OC)c1OC" , write its reported inhibition of growth at 4 ppm.
(A) 7

(Q) Using known records, supply inhibition of growth at 4 ppm for "Cc1cccc2sc3nncn3c12"
(A) 6

(Q) Check the records and state inhibition of growth at 4 ppm for "Cc1cc(C2CC2)nc(Nc2ccccc2)n1"
(A) 61

(Q) Query inhibition of growth at 4 ppm for "S1SSSSSSS1"
(A) 54

(Q) Tell me measured inhibition of growth at 4 ppm for Cc1nc2c(F)c(F)ccc2cc1Oc1cccc(F)c1C(C)(C)O [drawing 29] please.
(A) 50

(Q) Give the value of inhibition of growth at 4 ppm reported for the following: "CC(C)O/N=C(/CNC(=O)c1cn(C)nc1C(F)F)c1ncc(C#CC2CC2)cc1Cl"
(A) 1

(Q) State its inhibition of growth at 4 ppm: "Cc1ccc(NC(=O)c2snnc2C)cc1Cl"
(A) 2

(Q) Find the measured inhibition of growth at 4 ppm of "O=C(Nc1ccccc1-c1ccc(Cl)cc1)c1cccnc1Cl" and report it.
(A) 10

(Q) Give the measured inhibition of growth at 4 ppm for "COc1cc(C2=NC(C)(C)C(F)(F)c3ccccc32)cnc1C(F)F"
(A) 42
